- measurement.target: Steroid hormone receptor ERR1 (Homo sapiens)
- Sequence (P11474 whole entry, the tested form may be a part): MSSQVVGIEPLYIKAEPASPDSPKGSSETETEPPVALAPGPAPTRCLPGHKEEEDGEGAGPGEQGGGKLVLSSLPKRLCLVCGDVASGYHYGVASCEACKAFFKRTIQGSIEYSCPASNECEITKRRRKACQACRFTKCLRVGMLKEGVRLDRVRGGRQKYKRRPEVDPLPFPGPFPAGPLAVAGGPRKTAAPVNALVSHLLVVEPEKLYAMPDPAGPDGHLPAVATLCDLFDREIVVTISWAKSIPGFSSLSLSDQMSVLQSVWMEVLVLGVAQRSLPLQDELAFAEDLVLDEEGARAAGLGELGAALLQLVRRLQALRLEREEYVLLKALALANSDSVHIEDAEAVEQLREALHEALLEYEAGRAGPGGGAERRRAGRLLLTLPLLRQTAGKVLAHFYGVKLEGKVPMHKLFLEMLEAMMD
- assay.procedure: Inhibition of fluorescein-labeled PGC-1alpha binding to GAL4-DNA binding domain-fused human ERRalpha ligand binding domain expressed in HEK293 cells in presence of terbium chelate by TR-FRET assay
- Assay type: cell-based
pIC50: −log10 of the molar value.
property: pIC50

> print(dat)
                                smiles.code                        measurement.target  recorded.measurement
1  CCOc1cc(NS(C)(=O)=O)c(OCC)cc1CNC(=O)Nc1ccc(OCC)c(C(=O)NCc2ccc(OC)cc2)c1  Steroid hormone receptor ERR1 (Homo sapiens)                  6.21

###

Here, each record is paired with measured pIC50 data.
- measurement.target: Steroid hormone receptor ERR1 (Homo sapiens)
- assay.procedure: Inverse agonist activity at GAL4-DNA binding domain-fused human ERRalpha ligand binding domain expressed in HEK293 cells assessed as inhibition of transcriptional activity after 48 hrs by luciferase reporter gene assay
- Format: cell-based
pIC50: −log10 of the molar value.
property: pIC50

> print(dat)
                                smiles.code  recorded.measurement
1  CCOc1cc(NS(C)(=O)=O)c(OCC)cc1CNC(=O)Nc1ccc(OCC)c(C(=O)NCc2ccccc2)c1                  5.42
2  CCCCOc1ccc(NC(=O)NCc2cc(OCC)c(NS(C)(=O)=O)cc2OCC)cc1C(=O)OC                  5.46
3  CCOc1cc(NS(C)(=O)=O)c(OCC)cc1CNC(=O)Nc1ccc(OCC)c(C(=O)Nc2ccccc2)c1                  5.43
4  CCOc1cc(NS(C)(=O)=O)c(OCC)cc1CNC(=O)Nc1ccc(OCc2ccccc2)c(C(=O)OC)c1                  5.39
5  CCOc1cc(NS(C)(=O)=O)c(OCC)cc1CNC(=O)Nc1ccccc1                  4.68
6  CCOc1cc(NS(C)(=O)=O)c(OCC)cc1CNC(=O)Nc1ccc(OCC)c(C(=O)Nc2cccc(OC)c2)c1                  5.37
7  CCOc1cc(NS(C)(=O)=O)c(OCC)cc1CNC(=O)Nc1ccc(OCC)c(C(=O)NCc2ccc(OC)cc2)c1                  5.72
8  CCOc1cc(NS(C)(=O)=O)c(OCC)cc1CNC(=O)Nc1ccc(OCC)c(C(=O)Nc2ccc(C)cc2)c1                  5.52
9  CCOc1cc(NS(C)(=O)=O)c(OCC)cc1CNC(=O)Nc1ccc(OCC)c(C(=O)NC(C)C)c1                  5.46
